In this section, each of the compounds is paired with its reported pKi.
# Measured target: Protein farnesyltransferase (Homo sapiens, UniProt P49354+P49356)
# Protocol text: Binding affinity to CaaX site of human recombinant FTase by non-competitive Michaelis-Menten analysis for enzyme-inhibitor complex
# Assay type: protein-complex assay
Convention used: pKi is expressed as -log10 of the molar concentration.

# Compound, pKi
rows = [
    ("CCOC(=O)C(C/C=C/c1ncc(CN[C@H](C(=O)N[C@@H](Cc2ccccc2)C(=O)N[C@@H](CCSC)C(=O)O)C(C)C)n1C)(C/C=C(\\C)CC/C=C(\\C)CCC=C(C)C)C(=O)O (some centres not stated)", 4.77),
]

stdin: Give recorded pKi with Protein farnesyltransferase (Homo sapiens, UniProt P49354+P49356) for the following compound: CCOC(=O)C(C/C=C(\C)CC/C=C(\C)CCC=C(C)C)(CCCc1ncc(CN[C@H](C(=O)N[C@@H](Cc2ccccc2)C(=O)N[C@@H](CCSC)C(=O)O)C(C)C)n1C)C(=O)O (some centres not stated)
stdout: 5.11

---

# Tested on: Plasmodium falciparum
# Protocol text: Antiplasmodial activity against Plasmodium falciparum FcB1/Columbia assessed as [3H]hypoxanthine incorporation after 24 hrs by liquid scintillation spectrophotometer
# Format: functional, organism-based
Parameter: log10(IC50) (log10 of the value in µM)
Record value = log10 of IC50 given in µM.

These recorded examples may help you get a feel for the data.
# Molecule, Measured target, log10(IC50)
measured = [
    ("CCOC(=O)C(C/C=C/c1ncc(CN[C@H](C(=O)N[C@@H](Cc2ccccc2)C(=O)N[C@@H](CCSC)C(=O)OC)C(C)C)n1C)(C/C=C(\\C)CC/C=C(\\C)CCC=C(C)C)C(=O)OCC", "Plasmodium falciparum", 0.04),
    ("CCOC(=O)C(C/C=C(\\C)CC/C=C(\\C)CCC=C(C)C)(CCCc1ncc(CN[C@H](C(=O)N[C@@H](Cc2ccccc2)C(=O)N[C@@H](CCSC)C(=O)OC)C(C)C)n1C)C(=O)OCC", "Plasmodium falciparum", 0.00),
    ("CCOC(=O)C(C/C=C(\\C)CC/C=C(\\C)CCC=C(C)C)(CCCc1nccn1C)C(=O)OCC", "Plasmodium falciparum", 0.60),
]

stdin: Value lookup for log10(IC50); key = CCOC(=O)C(C/C=C/c1ncc(CN[C@H](C(=O)N[C@@H](Cc2ccccc2)C(=O)N[C@@H](CCSC)C(=O)O)C(C)C)n1C)(C/C=C(\C)CC/C=C(\C)CCC=C(C)C)C(=O)O (stereo not given in full)
stdout: 1.24

stdin: Moving on to CCOC(=O)C(C/C=C(\C)CC/C=C(\C)CCC=C(C)C)(CCCc1ncc(CN[C@H](C(=O)N[C@@H](Cc2ccccc2)C(=O)N[C@@H](CCSC)C(=O)O)C(C)C)n1C)C(=O)O (stereo not given in full)
stdout: 1.50

---

# Measured target: Protein farnesyltransferase (Homo sapiens, UniProt P49354+P49356)
# Protocol text: Inhibition of human recombinant FTase by fluorescent-based assay
# Format: protein-complex assay
# Measurement setup: read-out: IC50
Parameter: log10 IC50 (log10 of the value in µM)
A difference of one corresponds to tenfold IC50; all values are log10 with IC50 in µM.

stdin: Recorded log10 IC50 of CC(C)=CCC/C(C)=C/CC/C(C)=C/CCC(=O)CCCC(=O)O , please.
stdout: 1.78

stdin: Proceed to CC(C)=CCC/C(C)=C/CC/C(C)=C/COC(=O)CC(=O)O
stdout: 2.20
